SYSTEM NAME: rat mGluR5 (Rattus norvegicus, UniProt P31424)
Sequence (P31424 21-1203): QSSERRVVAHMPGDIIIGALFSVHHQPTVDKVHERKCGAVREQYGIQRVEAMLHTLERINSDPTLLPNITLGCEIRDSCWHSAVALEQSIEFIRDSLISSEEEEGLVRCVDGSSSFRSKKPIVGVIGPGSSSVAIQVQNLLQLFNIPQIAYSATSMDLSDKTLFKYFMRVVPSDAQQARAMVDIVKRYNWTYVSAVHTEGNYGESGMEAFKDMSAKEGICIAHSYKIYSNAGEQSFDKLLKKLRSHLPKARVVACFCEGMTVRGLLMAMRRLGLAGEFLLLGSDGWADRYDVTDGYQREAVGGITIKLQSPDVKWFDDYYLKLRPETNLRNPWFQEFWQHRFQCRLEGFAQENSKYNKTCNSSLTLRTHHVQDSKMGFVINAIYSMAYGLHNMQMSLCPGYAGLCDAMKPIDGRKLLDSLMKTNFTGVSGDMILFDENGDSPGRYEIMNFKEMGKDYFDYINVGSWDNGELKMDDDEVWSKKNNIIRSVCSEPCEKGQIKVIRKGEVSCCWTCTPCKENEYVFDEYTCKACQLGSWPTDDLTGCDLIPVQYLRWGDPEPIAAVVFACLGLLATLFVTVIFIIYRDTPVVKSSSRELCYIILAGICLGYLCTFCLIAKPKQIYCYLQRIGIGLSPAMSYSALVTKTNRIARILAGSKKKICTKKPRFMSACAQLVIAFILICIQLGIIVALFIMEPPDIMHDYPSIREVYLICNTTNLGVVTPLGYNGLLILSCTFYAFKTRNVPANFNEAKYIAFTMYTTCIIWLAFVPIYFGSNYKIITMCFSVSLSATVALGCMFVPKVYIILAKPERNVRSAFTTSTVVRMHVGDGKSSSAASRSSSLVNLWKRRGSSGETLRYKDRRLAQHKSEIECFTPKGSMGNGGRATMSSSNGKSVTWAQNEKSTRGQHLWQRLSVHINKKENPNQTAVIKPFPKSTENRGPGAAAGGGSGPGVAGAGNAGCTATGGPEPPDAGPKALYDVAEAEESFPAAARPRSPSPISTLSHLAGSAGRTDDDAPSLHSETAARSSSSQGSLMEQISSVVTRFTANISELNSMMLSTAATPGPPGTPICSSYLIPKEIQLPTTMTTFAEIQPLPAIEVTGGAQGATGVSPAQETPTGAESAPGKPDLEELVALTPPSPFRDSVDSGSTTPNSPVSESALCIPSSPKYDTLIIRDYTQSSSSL
PROTOCOL TEXT: Potentiation of glutamate response, calcium fluorescence (FDSS) in HEK cells transfected with rat mGluR5
CONDITION SET: HEK cells transfected with rat mGluR5; EC20 concentration of glutamate; read-out: mGluR5 Potentiator EC50
Experimental: Human embryonic kidney (HEK) cells transfected with rat mGluR5 were plated in clear bottom assay plates for assay in a Functional Drug Screening System (FDSS). […] After establishment of a fluorescence baseline for twelve seconds, the compounds of the present invention were added to the cells, and the response in cells was measured. Five minutes later, an mGluR5 agonist (e.g., glutamate, 3,5-dihydroxyphenylglycine, or quisqualate) was added to the cells, and the response of the cells was measured. […]
ENDPOINT: EC50 (nM)
Quick note: give the figure in nM, leave out the unit.

Record CN1CCN(C(=O)CN2CCc3cc(C#Cc4ccccc4)ccc3C2=O)CC1 [VU000131] , field EC50: 7200

EC50 reading for O=C1NCCc2cc(C#Cc3ccc(F)cc3)ccc21 [VU000107] : 259

EC50 measured on O=C(CN1CCc2cc(C#Cc3ccccc3)ccc2C1=O)N1CCOCC1 [VU000130] = 2350

// EC50 value for O=C1c2ccc(C#Cc3ccccc3)cc2CCN1Cc1ccccc1 [VU000071] : 546

Reported EC50 of O=C(CN1CCc2cc(C#Cc3ccccc3)ccc2C1=O)NCC1CC1 [VU000124] : 953

Memo: O=C(CN1CCc2cc(C#Cc3ccccc3)ccc2C1=O)NC1CC1 [VU000125] , reported EC50: 3080

Entry O=C1NCCc2cc(C#Cc3ccc(F)cc3F)ccc21 [VU000115] , EC50 reported as 853

Noted for CCCN1CCc2cc(C#Cc3ccccc3)ccc2C1=O [VU000069] : its EC50 reads 16.2
